- procedure details: physchem
- Design: dose or concentration left out as unconfirmed
- conditions: PAMPA, pH 7.4
Structures can show the parent of a compound that is named as a salt.
We'd kindly ask you to apply these Papp classes: label 0: < 5 ×10⁻⁶ cm/s; label 1: ≥ 5 ×10⁻⁶ cm/s and < 8 ×10⁻⁶ cm/s; label 2: ≥ 8 ×10⁻⁶ cm/s

[in] Into which category would you place CC[C@@]1(O)C(=O)OCc2c1cc1n(c2=O)Cc2c-1nc1cc(F)c(C)c3c1c2[C@@H]([C@H](CO)NC(C)C)CC3 (single isomer, unassigned) [Compound 17-112] ?
[out] label 1

[in] State the class of the compound shown: CC[C@@]1(O)C(=O)OCc2c1cc1n(c2=O)Cc2c-1nc1cc(F)c(C)c3c1c2[C@@H]([C@@H](N)CO)CC3 (single isomer, unassigned) [Compound 16-102, hydrochloride]
[out] label 0

[in] Dear colleague, I would appreciate it if you could identify the bin for CC[C@@]1(O)C(=O)OCc2c1cc1n(c2=O)Cc2c-1nc1cc(F)c(C)c3c1c2[C@H]([C@H](CCO)N(C)C)CC3 (single isomer, unassigned) [Compound 15-98] and reply at your convenience.
[out] label 2

[in] Consider CC[C@@]1(O)C(=O)OCc2c1cc1n(c2=O)Cc2c-1nc1cc(F)c(C)c3c1c2[C@@H]([C@@H](CO)NC(C)C)CC3 (single isomer, unassigned) [Compound 17-113] . To which Papp class does it belong?
[out] label 2

[in] Tag the class for CC[C@@]1(O)C(=O)OCc2c1cc1n(c2=O)Cc2c-1nc1cc(F)c(C)c3c1c2[C@H]([C@@H](CCO)NC(C)C)CC3 (single isomer, unassigned) [Compound 14-95]
[out] label 1

[in] Textbook exercise: identify the category of the compound given here, CC[C@@]1(O)C(=O)OCc2c1cc1n(c2=O)Cc2c-1nc1cc(F)c(C)c3c1c2[C@H]([C@H](CCO)NC(C)C)CC3 (single isomer, unassigned) [Compound 14-94] , according to its measured value.
[out] label 1

[in] Kindly identify the class of CC[C@@]1(O)C(=O)OCc2c1cc1n(c2=O)Cc2c-1nc1cc(F)c(C)c3c1c2[C@H]([C@H](N)CO)CC3 (single isomer, unassigned) [Compound 16-111, hydrochloride] .
[out] label 0

[in] Kindly state the category for this compound: CC[C@@]1(O)C(=O)OCc2c1cc1n(c2=O)Cc2c-1nc1cc(F)c(C)c3c1c2[C@H]([C@@H](CCO)N(C)C)CC3 (single isomer, unassigned) [Compound 15-99]
[out] label 2

[in] Which bin, given its Papp, does CC[C@@]1(O)C(=O)OCc2c1cc1n(c2=O)Cc2c-1nc1cc(F)c(C)c3c1c2[C@@H]([C@H](N)CO)CC3 (single isomer, unassigned) [Compound 16-105, hydrochloride] occupy?
[out] label 0

[in] Band of CC[C@@]1(O)C(=O)OCc2c1cc1n(c2=O)Cc2c-1nc1cc(F)c(C)c3c1c2[C@H]([C@@H](CO)NC(C)C)CC3 (single isomer, unassigned) [Compound 17-115] ?
[out] label 0

---

Please respond with reported half-life for every item in the list.
- procedure details: Human liver microsome clearance (HLM CL)
- Type: in vitro ADME
- Set-up: dose or concentration left out as unconfirmed
- conditions: human, microsomes
- Source text: […]
Structures can show the parent of a compound that is named as a salt.
Number first, unit second: that is the form wanted.

[in] // lookup half-life for CC[C@@]1(O)C(=O)OCc2c1cc1n(c2=O)Cc2c-1nc1cc(F)c(C)c3c1c2[C@H]([C@H](CCO)N(C)C)CC3 (single isomer, unassigned) [Compound 15-98]
[out] 6.7 min

[in] Name the reported half-life value associated with the molecule CC[C@@]1(O)C(=O)OCc2c1cc1n(c2=O)Cc2c-1nc1cc(F)c(C)c3c1c2[C@H]([C@@H](CO)NC(C)C)CC3 (single isomer, unassigned) [Compound 17-115]
[out] 6 min

[in] Any idea what its half-life is? The molecule is CC[C@@]1(O)C(=O)OCc2c1cc1n(c2=O)Cc2c-1nc1cc(F)c(C)c3c1c2[C@H]([C@@H](N)CO)CC3 (single isomer, unassigned) [Compound 16-108, hydrochloride]
[out] 110 min

[in] What half-life value was documented for this molecule, CC[C@@]1(O)C(=O)OCc2c1cc1n(c2=O)Cc2c-1nc1cc(F)c(C)c3c1c2[C@@H]([C@@H](CCO)NC(C)C)CC3 (single isomer, unassigned) [Compound 14-93] ?
[out] 46 min

[in] GET /values?readout=half-life&item= CC[C@@]1(O)C(=O)OCc2c1cc1n(c2=O)Cc2c-1nc1cc(F)c(C)c3c1c2[C@H]([C@H](CCO)NC(C)C)CC3 (single isomer, unassigned) [Compound 14-94]
[out] 6.7 min

---

- procedure details: Human liver microsome clearance (HLM CL)
- Assay type: in vitro ADME
- Set-up: dose or concentration left out as unconfirmed
- conditions: human, microsomes
Counter-ions that a name gives are not always drawn.
I'd be grateful if you could share measured half-life for these entries.
Report as a plain number; the unit min is understood.

[in] // returns reported half-life for input CC[C@@]1(O)C(=O)OCc2c1cc1n(c2=O)Cc2c-1nc1cc(F)c(C)c3c1c2[C@H]([C@@H](CCO)NC(C)C)CC3 (single isomer, unassigned)
[out] 29

[in] I am curious: what half-life value has been reported for CC[C@@]1(O)C(=O)OCc2c1cc1n(c2=O)Cc2c-1nc1cc(F)c(C)c3c1c2[C@H]([C@@H](CCO)N(C)C)CC3 (single isomer, unassigned) ?
[out] 58

[in] Consider the compound CC[C@@]1(O)C(=O)OCc2c1cc1n(c2=O)Cc2c-1nc1cc(F)c(C)c3c1c2[C@@H]([C@H](CCO)NC(C)C)CC3 (single isomer, unassigned) and give its measured half-life.
[out] 57

[in] Bench note: what half-life did CC[C@@]1(O)C(=O)OCc2c1cc1n(c2=O)Cc2c-1nc1cc(F)c(C)c3c1c2[C@@H]([C@@H](N)CO)CC3 (single isomer, unassigned) [Compound 16-102, hydrochloride] show?
[out] 142

---

- procedure details: physchem
- Set-up: dose or concentration left out as unconfirmed
- conditions: PAMPA, pH 5
Structures can show the parent of a compound that is named as a salt.
Param threshold (200 nm/s) applies to Papp; output Condition met when value >= threshold, Condition not met when value < threshold.

[in] Evaluate CC[C@@]1(O)C(=O)OCc2c1cc1n(c2=O)Cc2c-1nc1cc(F)c(C)c3c1c2[C@H]([C@H](CCO)NC(C)C)CC3 (single isomer, unassigned) : Papp at minimum 200 nm/s?
[out] Condition not met

[in] Would you say CC[C@@]1(O)C(=O)OCc2c1cc1n(c2=O)Cc2c-1nc1cc(F)c(C)c3c1c2[C@@H]([C@H](CO)NC(C)C)CC3 (single isomer, unassigned) shows Papp at minimum 200 nm/s?
[out] Condition not met

[in] For this compound, is measured Papp 200 nm/s or higher? CC[C@@]1(O)C(=O)OCc2c1cc1n(c2=O)Cc2c-1nc1cc(F)c(C)c3c1c2[C@@H]([C@@H](CO)NC(C)C)CC3 (single isomer, unassigned)
[out] Condition met

[in] Identify whether the reported Papp of the following compound is 200 nm/s or greater: CC[C@@]1(O)C(=O)OCc2c1cc1n(c2=O)Cc2c-1nc1cc(F)c(C)c3c1c2[C@H]([C@@H](CCO)N(C)C)CC3 (single isomer, unassigned)
[out] Condition not met

[in] I'd appreciate it if you could say whether CC[C@@]1(O)C(=O)OCc2c1cc1n(c2=O)Cc2c-1nc1cc(F)c(C)c3c1c2[C@H]([C@H](N)CO)CC3 (single isomer, unassigned) [Compound 16-111, hydrochloride] has Papp at least equal to 200 nm/s.
[out] Condition not met

[in] # check: Papp of CC[C@@]1(O)C(=O)OCc2c1cc1n(c2=O)Cc2c-1nc1cc(F)c(C)c3c1c2[C@@H]([C@H](CCO)NC(C)C)CC3 (single isomer, unassigned) is greater than or equal to 200 nm/s
[out] Condition not met

---

- procedure details: Human liver microsome clearance (HLM CL)
- Type: in vitro ADME
- Set-up: dose or concentration left out as unconfirmed
- conditions: human, microsomes
reported property: half-life

[in] Which half-life value is on record for CC[C@@]1(O)C(=O)OCc2c1cc1n(c2=O)Cc2c-1nc1cc(F)c(C)c3c1c2[C@@H]([C@@H](CCO)N(C)C)CC3 (single isomer, unassigned) [Compound 15-97] ?
[out] 36 min

[in] Quick one: half-life for CC[C@@]1(O)C(=O)OCc2c1cc1n(c2=O)Cc2c-1nc1cc(F)c(C)c3c1c2[C@@H](N)CC3 [Exatecan] ?
[out] 75 min

[in] Dear colleague, I am looking for the recorded half-life of the following compound: CC[C@@]1(O)C(=O)OCc2c1cc1n(c2=O)Cc2c-1nc1cc(F)c(C)c3c1c2[C@H]([C@H](CO)NC(C)C)CC3 (single isomer, unassigned) [Compound 17-114]
[out] 2.1 min
